System: HCT116 cells
Assay info: Inhibition of proliferation of the human colon tumor line HCT116 ([14C]-thymidine incorporation)
Type: cell-based
Condition description: Homo sapiens, HCT-116, 48 h, 48 hours at 37° C., read-out: Inhibition of HCT116 proliferation IC 50 (μm)
Parameter: IC50 (nM)

(P) Cc1cc(C(=O)N2CCN(c3cccc(Cl)c3)CC2)n(-c2cccnc2)n1 [Example E52]
(Q) Cc1cc(C(=O)N2CCN(c3cccc(NCCO)c3)CC2)n(-c2ccccc2)n1 [Example E103]
(R) Cc1cc(C(=O)N2CCN(c3cc(Cl)c(Br)cc3Br)CC2)n(-c2ccccc2)n1 [Example E79]
(S) COc1ccc(Cl)cc1N1CCN(C(=O)c2cc(C)nn2-c2ccccc2F)CC1 [3/88]
Arrange by IC50, high to low. // ordering of labels required in reply R, S, Q, P

Every entry's value here was drawn from patent US20050130989A1.
